Endpoint summary: pIC50, system: Leucine-rich repeat serine/threonine-protein kinase 2 (Homo sapiens), multiple sources combined.
pIC50: −log10 of the molar value.

{"compound": "CCNc1cc(Nc2ccc(P3(=O)CCN(C4CCOCC4)CC3)cc2OC)nc2[nH]cc(C(F)(F)F)c12", "pIC50": "6.52 to 7.00"}
{"compound": "Cc1n[nH]c2ncc(-c3cccc(CC#N)c3)cc12", "pIC50": "< 6.00"}
{"compound": "CSc1ccc(OC(F)F)c(-c2nn(CC(=O)N3CCC(CN4CCN(CC(=O)N(C)C)CC4)CC3)cc2NC(=O)c2cnn3cccnc23)c1", "pIC50": 5.70}
{"compound": "CCNc1cc(Nc2ccc(P3(=O)CCN(CC)CC3)cc2OC)nc2[nH]cc(C(F)(F)F)c12", "pIC50": "> 7.00"}
{"compound": "COc1cc(-c2cnc(N)c(-c3cn(C(C)C)nn3)c2)ccc1C(=O)N1CCOCC1", "pIC50": 7.04}
{"compound": "COC[C@@H](C)Nc1cc(Nc2ccc(S(=O)(=O)N3CCC(N4CCOCC4)CC3)cc2OC)nc2[nH]cc(C(F)(F)F)c12", "pIC50": "> 7.00"}
{"compound": "COCCNc1cc(Nc2ccc(C(=O)N3CCC(N4CCOCC4)CC3)c3c2OCCO3)nc2[nH]cc(C(F)(F)F)c12", "pIC50": "> 7.00"}
{"compound": "CC(C)n1cc(-c2cc(-c3ccc(F)c(CN4CCOCC4)c3)cnc2N)nn1", "pIC50": 6.00}

Please give pIC50 for each item listed below.
1. CCc1cc(N2CCN(C)CC2)ccc1Nc1ncc(C2CC2)c(NCCCNC(=O)C2CCC2)n1
2. Cc1ccc2[nH]ccc2c1-c1ccc2nc(NC(=O)[C@@H]3C[C@@H]3F)cn2c1
3. CN(CC1CCOCC1)c1cncc(-c2cnc3[nH]cc(F)c3c2)n1
4. CC(C)c1cc(N2CCN(C)CC2)ccc1Nc1ncc(C(F)(F)F)c(NCCCN2CCCCC2=O)n1

1. 4.70 to 6.22
2. > 8.00
3. > 6.30
4. 6.22 to 6.52
